Values from patent US20130115166A1

Target: T1, IL-23 (HEK293E-derived) (human, UniProt P29460 23-328; Q9NPF7 20-189)
T1 sequence 1: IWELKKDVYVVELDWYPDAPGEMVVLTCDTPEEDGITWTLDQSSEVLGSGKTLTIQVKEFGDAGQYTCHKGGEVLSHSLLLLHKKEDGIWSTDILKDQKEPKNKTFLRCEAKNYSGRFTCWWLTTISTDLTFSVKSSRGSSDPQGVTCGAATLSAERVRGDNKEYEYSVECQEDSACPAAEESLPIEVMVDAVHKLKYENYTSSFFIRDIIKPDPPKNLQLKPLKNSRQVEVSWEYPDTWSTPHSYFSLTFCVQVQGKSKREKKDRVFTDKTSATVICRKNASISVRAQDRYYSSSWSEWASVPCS
T1 sequence 2: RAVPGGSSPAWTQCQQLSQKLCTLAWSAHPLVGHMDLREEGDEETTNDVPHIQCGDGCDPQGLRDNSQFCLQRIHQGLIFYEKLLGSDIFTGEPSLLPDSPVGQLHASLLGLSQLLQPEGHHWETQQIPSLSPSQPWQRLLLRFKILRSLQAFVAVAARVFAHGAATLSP
Test: SPR (Biacore), antibody supernatant captured on Protein A, IL-23 at 5 ug/ml as analyte
Please go through the items and note down their koff.
Give bare numbers, in s⁻¹.

Before answering, review these 2 worked examples.
20-4 (antibody, human IgG1, kappa, V domains shown, Humanized form of E11E7; also called humanized antibody 20-4) VH: EVQLQQWGAGLLKPSETLSLTCAVYGFSLISYNVHWIRQPPGKGLEWIGVIWTGGSTDYNSVLKSRVTISVDTSKNQFSLKLSSVTAADTAVYYCARDKYGLFPGYFDYWGQGTLVTVSS VL: EIVLTQSPATLSLSPGERATLSCKPSQSLLSSGNRKNYLAWYQQKPGQAPRLLIYYASTRQSGIPDRFSGSGSGTDFTLTISRLEPEDFAVYYCLQHFNYPWTFGGGTKVEIKR : 0.000231
5-23 (antibody, human IgG1, kappa, V domains shown, Humanized form of E11E7; also called humanized antibody 5-23) VH: QVQLQESGPGLVKPSETLSLTCTVSGGSIISYNVHWIRQPPGKGLEWIGVIWTGGSTDYNPSLKSRVTISRDTSKNQFSLKLSSVTAADTAVYYCARDKYGLFPGYFDYWGQGTLVTVSS VL: DIVMTQTPLSLPVTPGEPASISCKPSQSLLSSGNRKNYLAWYLQKPGQSPQLLIYYASTRQSGVPDRFSGSGSGTDFTLKISRVEAEDVGVYYCLQHFNYPWTFGQGTKLEIKR : 0.00639

// below: koff requested for another binder
Prompt line: Form field: reported koff of 10-22 (antibody, human IgG1, kappa, V domains shown, Humanized form of E11E7; also called humanized antibody 10-22) VH: QVQLQESGPGLVKPSETLSLTCTVSGGSISSYNVHWIRQPPGKGLEWIGVIWTGGSTDYNPSLKSRVTISVDTSKNQFSLKLSSVTAADTAVYYCARDKYGLFPGYFDYWGQGTLVTVSS VL: DIVMTQSPDSLAVSLGERATINCKPSQSLLSSGNRKNYLAWYQQKPGQPPKLLIYYASTRQSGVPDRFSGSGSGTDFTLTISSLQAEDVAVYYCLQHFNYPWTFGQGTKLEIKR
Response line: 0.00313
